measured on: Hmlalpha2 (UniProt P0CY09)
Sequence: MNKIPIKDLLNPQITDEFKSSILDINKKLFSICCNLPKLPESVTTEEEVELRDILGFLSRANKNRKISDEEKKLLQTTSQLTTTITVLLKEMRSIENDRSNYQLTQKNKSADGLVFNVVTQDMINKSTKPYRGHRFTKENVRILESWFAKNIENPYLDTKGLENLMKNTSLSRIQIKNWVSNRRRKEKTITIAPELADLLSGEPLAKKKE
experiment summary: PBM E-score (8-mer binding enrichment) (E-score (-0.5 to 0.5)); higher = stronger / more preferred TF binding
details: protein concentration: 200 nM; construct: GST-full length
Over roughly 33,000 sequences, “E-score (-0.5 to 0.5)” has its median near -0.04; the highest 2% begin near 0.36. This excerpt belongs to a sample that is enriched for the highest values.
observed property: PBM E-score
One number for each entry.

Worked cases, PBM E-score given:
seq text	measured on	PBM E-score
ACACGACC	Hmlalpha2 (UniProt P0CY09)	0.396
GTTACGTA	Hmlalpha2 (UniProt P0CY09)	0.293
ACATGTCG	Hmlalpha2 (UniProt P0CY09)	0.343

Hi! Can you tell me PBM E-score for each of these sequences?
1. ACACGAAT
2. TCATGTCA
3. ACACGACT
4. AGTAGACG
5. AAGTCGCG
6. TCCTCGCA
7. ATTTGCGA
8. GCATGTGA

Result:
[0.356, 0.359, 0.391, 0.0433, 0.111, -0.204, 0.0385, 0.263]

Hi! Can you tell me PBM E-score for each of these sequences?
1. CTACACGA
2. ACTACGTG
3. TGTATTAA
4. GTACACGA
5. AGTAACAA
6. CTACACTC
7. ACACGAGA
8. CGCTTACA

Result:
0.451
0.144
0.413
0.425
0.288
0.145
0.291
0.287

###

Kindly state PBM E-score for each of the entries shown.
measured on: Hmlalpha2 (UniProt P0CY09)
Sequence: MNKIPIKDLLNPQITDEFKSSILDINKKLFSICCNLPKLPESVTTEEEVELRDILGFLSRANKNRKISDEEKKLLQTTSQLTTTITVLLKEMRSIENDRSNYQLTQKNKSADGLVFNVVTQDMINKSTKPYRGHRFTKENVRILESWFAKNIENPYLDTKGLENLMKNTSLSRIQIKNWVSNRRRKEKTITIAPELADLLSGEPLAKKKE
experiment summary: PBM E-score (8-mer binding enrichment) (E-score (-0.5 to 0.5)); higher = stronger / more preferred TF binding
details: protein concentration: 200 nM; construct: GST-full length
In all, about 33,000 sequences were measured (“E-score (-0.5 to 0.5)”: median about -0.04, highest 2% from about 0.36 on). This excerpt belongs to a sample that is enriched for the highest values.
Answers are plain numbers.

seq text	PBM E-score
CCGTTAAA	0.125
ACGTGTGG	0.136
AGGTGTTG	-0.053
GCGTGTTA	0.46

Hi! Can you tell me PBM E-score for each of these sequences?
1. ACGTGTTA
2. ACGTGTTG
3. ACGTTAAC
4. TCGTTAAA
5. GCGTTAAC
6. ATAAGCAG
7. CAGTGTTA

Result:
1: 0.45; 2: 0.415; 3: 0.281; 4: 0.126; 5: 0.379; 6: -0.00191; 7: 0.212

###

measured on: Hmlalpha2 (UniProt P0CY09)
Sequence: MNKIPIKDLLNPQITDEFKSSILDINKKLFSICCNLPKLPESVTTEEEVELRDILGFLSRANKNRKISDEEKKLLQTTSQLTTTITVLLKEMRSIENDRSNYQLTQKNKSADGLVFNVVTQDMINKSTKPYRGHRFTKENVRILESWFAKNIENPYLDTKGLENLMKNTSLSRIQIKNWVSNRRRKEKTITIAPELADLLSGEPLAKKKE
experiment summary: PBM E-score (8-mer binding enrichment) (E-score (-0.5 to 0.5)); higher = stronger / more preferred TF binding
details: protein concentration: 200 nM; construct: GST-full length
Whole data set: some 33,000 sequences, median “E-score (-0.5 to 0.5)” near -0.04, cut for the highest 2% near 0.36. Only a selection was taken, and the highest values are over-represented in it overall.
I'd appreciate it if you could label each record using PBM E-score and these ranges: low class = under -0.2, middle class = from -0.2 up to -0.03, high class = -0.03 and over

Record excerpt, results attached:
seq text	label
GATGCATC	high class
CACGTTGG	high class
CAAGATAG	middle class
ACGACCCC	middle class
GGATAGGA	low class

Query: Tag the class for TCCGCGGA
Result: middle class

Query: Tag the class for GACGCGGA
Result: high class

Query: Tag the class for AGGAAAGG
Result: low class

Query: Tag the class for ACCCGAGA
Result: low class

Query: Tag the class for AGCCTCCT
Result: middle class

###

measured on: Hmlalpha2 (UniProt P0CY09)
Sequence: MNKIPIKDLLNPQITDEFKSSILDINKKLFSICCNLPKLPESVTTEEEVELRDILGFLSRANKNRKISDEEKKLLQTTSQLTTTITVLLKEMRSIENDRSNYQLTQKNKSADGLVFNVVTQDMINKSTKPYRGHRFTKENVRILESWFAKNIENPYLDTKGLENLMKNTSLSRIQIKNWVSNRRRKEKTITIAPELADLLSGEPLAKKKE
experiment summary: PBM E-score (8-mer binding enrichment) (E-score (-0.5 to 0.5)); higher = stronger / more preferred TF binding
details: protein concentration: 200 nM; construct: GST-full length
The full ranking holds about 33,000 sequences; the median of “E-score (-0.5 to 0.5)” is about -0.04, and the highest 2% start at about 0.36. The sample holds the highest values, similar sequences and a random draw of the others, so the mix is not that of the screen.
Returns one of rule met or rule not met; rule met when PBM E-score is >= 0.3.

Query: // inclusive: PBM E-score at least 0.3? input: AAATGTAG
Result: rule not met

###

measured on: Hmlalpha2 (UniProt P0CY09)
Sequence: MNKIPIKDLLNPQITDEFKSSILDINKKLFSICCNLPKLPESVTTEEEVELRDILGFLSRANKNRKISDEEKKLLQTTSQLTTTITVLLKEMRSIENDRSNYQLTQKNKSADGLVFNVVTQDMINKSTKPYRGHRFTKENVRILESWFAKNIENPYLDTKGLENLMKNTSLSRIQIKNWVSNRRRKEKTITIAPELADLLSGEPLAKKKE
experiment summary: PBM E-score (8-mer binding enrichment) (E-score (-0.5 to 0.5)); higher = stronger / more preferred TF binding
details: protein concentration: 200 nM; construct: GST-full length
The full ranking holds about 33,000 sequences; the median of “E-score (-0.5 to 0.5)” is about -0.04, and the highest 2% start at about 0.36. The full list was thinned out, with the highest values kept by preference.
observed property: PBM E-score
Answers are plain numbers.

Worked cases, PBM E-score given:
seq text	PBM E-score
AAATGTTA	0.33
CCATGTCA	0.333
AAGGAGCA	-0.237

Hi! Can you tell me PBM E-score for each of these sequences?
1. GCAATCTA
2. TGACCAAA
3. TCTTAAAA
4. AACAGCTA
5. AGTTTGCG
6. CCATGTGA
7. GGATGACC

Result:
0.119
-0.0837
-0.0174
0.115
-0.0236
0.184
-0.218

Hi! Can you tell me PBM E-score for each of these sequences?
1. TATCCTAA
2. TAGTACAA
3. CCACGTAA
4. GACTCTGA

Result:
[0.00317, 0.244, 0.33, -0.12]

Hi! Can you tell me PBM E-score for each of these sequences?
1. AGATGTTG
2. CTTTGGTC
3. CTCTAGAC

Result:
1. -0.0256
2. -0.0966
3. -0.116

Hi! Can you tell me PBM E-score for each of these sequences?
1. GAAGTCTC
2. AGAGGTGA
3. CATGTGAC
4. ACATAGCA
5. TATCTAAA

Result:
[-0.247, -0.0117, 0.19, 0.392, 0.141]

Hi! Can you tell me PBM E-score for each of these sequences?
1. GATCTACA
2. GTGTACAA
3. GATAAGTA
4. ACATAACC
5. GATTGTGC

Result:
1. 0.345
2. 0.439
3. 0.0843
4. 0.222
5. 0.0144

Hi! Can you tell me PBM E-score for each of these sequences?
1. GCCAGGAC
2. CCCTCAGA
3. CGATGTTA
4. CGTGCAAA
5. CCATAACA

Result:
-0.269
-0.285
0.353
0.172
0.333

Hi! Can you tell me PBM E-score for each of these sequences?
1. GCACGTAA
2. CAGTTCTC
3. AAAGCACA
4. ATTCTACG
5. AAAGATTC
6. ACACGCGA
7. CCTTAACA

Result:
[0.348, -0.179, 0.123, 0.157, 0.196, 0.378, 0.291]

Hi! Can you tell me PBM E-score for each of these sequences?
1. CGGTCCCC
2. AAGCGTCT
3. GGATGTAA
4. ATGCGAAT
5. ACGCTTGC
6. AGATGTAA
7. TCTTAAGA
8. CGAATATA

Result:
1. -0.347
2. -0.232
3. 0.397
4. -0.0339
5. -0.0163
6. 0.382
7. -0.132
8. -0.00331
